METHOD_DESCRIPTION: PK Oral (MMV)
Assay type: in vivo
TEST_CONDITIONS: in vivo, dose 30.8 mg/kg
ATTRIBUTE_MEASURED: Cmax

[Q] Using the record for COCCOc1ncnc2c1c(-c1ccc3cc(OC4CC4)ccc3c1)cn2CC(C)(C)O , report its Cmax.
[A] 34.4 µM

====

System: PC3
METHOD_DESCRIPTION: MTT proliferation assay, PC3
TEST_CONDITIONS: Homo sapiens, PC-3, read-out: MTT % inhib @ 10 μM PC3
ATTRIBUTE_MEASURED: inhibition at 10 µM
Lab note: write values as number then unit, every time.

Worked cases, answers included:
{"MOLECULE": "CNc1ncnc2c1c(-c1ccc3cc(OC(C)C)ccc3c1)cn2CC(C)(C)OC", "inhibition at 10 µM": "14.6%"}
{"MOLECULE": "CNc1ncnc2c1c(-c1ccc3cc(OC4CC4)ccc3c1)nn2CC(C)(C)O", "inhibition at 10 µM": "16.8%"}
{"MOLECULE": "CCOc1ccc2cc(-c3cn(CC(C)(C)O)c4ncnc(OCCOC)c34)ccc2c1", "inhibition at 10 µM": "2.9%"}
{"MOLECULE": "CC(C)(O)Cn1cc(-c2ccc3cc(OC4CC4)ccc3c2)c2c(NCCN)ncnc21", "inhibition at 10 µM": "6.7%"}
{"MOLECULE": "CCOc1ccc2cc(-c3cn(CC(C)(C)O)c4ncnc(OCC)c34)ccc2c1", "inhibition at 10 µM": "-3.2%"}
{"MOLECULE": "CNc1ncnc2c1c(-c1ccc(-c3ccccc3)cc1)nn2CC(C)(C)O", "inhibition at 10 µM": "8.4%"}
{"MOLECULE": "CNc1ncnc2c1c(-c1ccc(-c3ccccc3)cc1F)nn2CC(C)(C)O", "inhibition at 10 µM": "8.3%"}
{"MOLECULE": "CNc1ncnc2c1c(-c1ccc(-c3ccc(Br)cc3)cc1)cn2CC(C)(C)OC", "inhibition at 10 µM": "11.4%"}

[Q] Using the record for CCOCCNc1ncnc2c1c(-c1ccc3cc(OCC)ccc3c1)cn2CC(C)(C)O , report its inhibition at 10 µM.
[A] 14.9%

[Q] Using the record for COCCOc1ncnc2c1c(-c1ccc(-c3ccccc3)cc1)cn2CC(C)(C)O , report its inhibition at 10 µM.
[A] 13%

[Q] Using the record for CCOc1ncnc2c1c(-c1ccc3cc(OC4CC4)ccc3c1)cn2CC(C)(C)O , report its inhibition at 10 µM.
[A] 10.1%

[Q] Using the record for CNc1ncnc2c1c(-c1cccc(C(C)C)c1)nn2CC(C)(C)O , report its inhibition at 10 µM.
[A] -10.5%

[Q] Using the record for CC(C)(O)Cn1cc(-c2ccc3cc(OC4CC4)ccc3c2)c2c(NCCOCCOCCOCCN)ncnc21 , report its inhibition at 10 µM.
[A] -8.3%

[Q] Using the record for CNc1ncnc2c1c(-c1cccc(C(C)C)c1)cn2CC(C)(C)OC , report its inhibition at 10 µM.
[A] -5.4%

[Q] Using the record for CCOCCNc1ncnc2c1c(-c1ccc(-c3ccc(CC)cc3)cc1)cn2CC(C)(C)O , report its inhibition at 10 µM.
[A] 8.3%

[Q] Using the record for CNc1ncnc2c1c(-c1cccc(Cl)c1)cn2CC(C)(C)OC , report its inhibition at 10 µM.
[A] 4.3%

[Q] Using the record for CCOCCNc1ncnc2c1c(-c1ccc(-c3ccccc3)cc1)cn2CC(C)(C)O , report its inhibition at 10 µM.
[A] 9%

[Q] Using the record for CCOCCNc1ncnc2c1c(-c1ccc(-c3ccc(OC)cc3)cc1)cn2CC(C)(C)O , report its inhibition at 10 µM.
[A] 11.6%

====

METHOD_DESCRIPTION: PK Oral (MMV)
Format: in vivo
TEST_CONDITIONS: in vivo, dose 24.6 mg/kg
ATTRIBUTE_MEASURED: Tmax (h)
Numbers only here, please. The scale is h.

[Q] Using the record for CCOc1ncnc2c1c(-c1ccc3cc(OC4CC4)ccc3c1)cn2CC(C)(C)O , report its Tmax.
[A] 1

====

Tested on: PC3
METHOD_DESCRIPTION: MTT proliferation assay, PC3
TEST_CONDITIONS: Homo sapiens, PC-3, read-out: MTT % inhib @ 10 μM PC3
Where inhibition at 10 µM equals or exceeds 10%, the correct label is Satisfied; where it does not, the label is Not satisfied.

Some solved cases for reference:
{"COMPOUND": "CC(C)(O)Cn1cc(-c2ccc3cc(OC4CC4)ccc3c2)c2c(NCCOCCN)ncnc21 [Example 27]", "ASSIGNED_CATEGORY": "Not satisfied"}
{"COMPOUND": "CCOc1ccc2cc(-c3cn(CC(C)(C)O)c4ncnc(NC)c34)ccc2c1 [Example 11]", "ASSIGNED_CATEGORY": "Not satisfied"}
{"COMPOUND": "CCOc1ccc2cc(-c3cn(CC(C)(C)O)c4ncnc(NCCO)c34)ccc2c1 [Example 25]", "ASSIGNED_CATEGORY": "Satisfied"}
{"COMPOUND": "COCCOc1ncnc2c1c(-c1ccc3ccccc3c1)cn2CC(C)(C)O [Example 7]", "ASSIGNED_CATEGORY": "Not satisfied"}
{"COMPOUND": "CCOCCNc1ncnc2c1c(-c1ccc3cc(OC(C)C)ccc3c1)cn2CC(C)(C)O [Example 36]", "ASSIGNED_CATEGORY": "Satisfied"}
{"COMPOUND": "CCOCCNc1ncnc2c1c(-c1ccc3cc(OC4CC4)ccc3c1)cn2CC(C)(C)O [Example 35]", "ASSIGNED_CATEGORY": "Satisfied"}
{"COMPOUND": "CCOc1ccc2cc(-c3cn(CC(C)(C)OC)c4ncnc(NC)c34)ccc2c1 [Example 18]", "ASSIGNED_CATEGORY": "Satisfied"}
{"COMPOUND": "CC(C)(O)Cn1cc(-c2ccc(-c3ccccc3)cc2)c2c(NCCO)ncnc21 [Example 30]", "ASSIGNED_CATEGORY": "Not satisfied"}

[Q] Given CCc1ccc(-c2ccc(-c3cn(CC(C)(C)OC)c4ncnc(NC)c34)cc2)cc1 [Example 34] , state whether its inhibition at 10 µM is at least 10%.
[A] Not satisfied

[Q] Given CCOCCNc1ncnc2c1c(-c1ccc(-c3ccc(Br)cc3)cc1)cn2CC(C)(C)O [Example 40] , state whether its inhibition at 10 µM is at least 10%.
[A] Satisfied

[Q] Given CNc1ncnc2c1c(-c1ccc(-c3ccccc3)cc1)cn2CC(C)(C)O [Example 13] , state whether its inhibition at 10 µM is at least 10%.
[A] Not satisfied

[Q] Given CC(C)(O)Cn1cc(-c2ccc3cc(OC4CC4)ccc3c2)c2c(NCCO)ncnc21 [Example 26] , state whether its inhibition at 10 µM is at least 10%.
[A] Not satisfied

[Q] Given CCOc1ccc2cc(-c3nn(CC(C)(C)O)c4ncnc(NC)c34)ccc2c1 [Example 14] , state whether its inhibition at 10 µM is at least 10%.
[A] Not satisfied

[Q] Given COCCOc1ncnc2c1c(-c1ccc3cc(OC4CC4)ccc3c1)cn2CC(C)(C)O [Example 2] , state whether its inhibition at 10 µM is at least 10%.
[A] Satisfied

[Q] Given CNc1ncnc2c1c(-c1ccc3cc(OC4CC4)ccc3c1)cn2CC(C)(C)O [Example 15] , state whether its inhibition at 10 µM is at least 10%.
[A] Not satisfied

[Q] Given CC(C)(O)Cn1cc(-c2ccc3cc(OC4CC4)ccc3c2)c2c(NCCOCCNC(=O)OC3CC/C=C/CCC3)ncnc21 (stereo not drawn) [Example 29] , state whether its inhibition at 10 µM is at least 10%.
[A] Not satisfied

[Q] Given CNc1ncnc2c1c(-c1cccc(-c3ccccc3)c1)nn2CC(C)(C)O [Example 19] , state whether its inhibition at 10 µM is at least 10%.
[A] Not satisfied

[Q] Given CCOc1ccc2cc(-c3cn(CC(C)(C)O)c4ncnc(NCCN)c34)ccc2c1 [Example 23] , state whether its inhibition at 10 µM is at least 10%.
[A] Satisfied

====

Tested on: CRL-8155
METHOD_DESCRIPTION: Cell toxicity, CRL-8155 lymphoblastoid cell line
TEST_CONDITIONS: read-out: EC50 CRL8155; Table 2
pEC50: −log10 of the molar value.
ATTRIBUTE_MEASURED: pEC50

[Q] Using the record for CNc1ncnc2c1c(-c1ccc3cc(OC4CC4)ccc3c1)nn2CC(C)(C)O , report its pEC50.
[A] < 4.40

====

METHOD_DESCRIPTION: Plasma protein binding, human
Type: in vitro ADME
ATTRIBUTE_MEASURED: fraction unbound
I'd appreciate a reply containing only the number, no unit.

[Q] Using the record for CNc1ncnc2c1c(-c1ccc3cc(OC4CC4)ccc3c1)nn2CC(C)(C)O [Example 1] , report its fraction unbound.
[A] 0.007
